biological target: EGFR L858R/T790M/C797S (Homo sapiens, UniProt P00533, C797S/L858R/T790M); assay: Biochemical EGFR kinase assay (Lance Ultra TR-FRET), triple mutant L858R/T790M/C797S; details: ATP at Km; read-out: IC50 L858R/T790M/C797S, Km ATP
Sequence (P00533 25-1210 T790M/C797S/L858R): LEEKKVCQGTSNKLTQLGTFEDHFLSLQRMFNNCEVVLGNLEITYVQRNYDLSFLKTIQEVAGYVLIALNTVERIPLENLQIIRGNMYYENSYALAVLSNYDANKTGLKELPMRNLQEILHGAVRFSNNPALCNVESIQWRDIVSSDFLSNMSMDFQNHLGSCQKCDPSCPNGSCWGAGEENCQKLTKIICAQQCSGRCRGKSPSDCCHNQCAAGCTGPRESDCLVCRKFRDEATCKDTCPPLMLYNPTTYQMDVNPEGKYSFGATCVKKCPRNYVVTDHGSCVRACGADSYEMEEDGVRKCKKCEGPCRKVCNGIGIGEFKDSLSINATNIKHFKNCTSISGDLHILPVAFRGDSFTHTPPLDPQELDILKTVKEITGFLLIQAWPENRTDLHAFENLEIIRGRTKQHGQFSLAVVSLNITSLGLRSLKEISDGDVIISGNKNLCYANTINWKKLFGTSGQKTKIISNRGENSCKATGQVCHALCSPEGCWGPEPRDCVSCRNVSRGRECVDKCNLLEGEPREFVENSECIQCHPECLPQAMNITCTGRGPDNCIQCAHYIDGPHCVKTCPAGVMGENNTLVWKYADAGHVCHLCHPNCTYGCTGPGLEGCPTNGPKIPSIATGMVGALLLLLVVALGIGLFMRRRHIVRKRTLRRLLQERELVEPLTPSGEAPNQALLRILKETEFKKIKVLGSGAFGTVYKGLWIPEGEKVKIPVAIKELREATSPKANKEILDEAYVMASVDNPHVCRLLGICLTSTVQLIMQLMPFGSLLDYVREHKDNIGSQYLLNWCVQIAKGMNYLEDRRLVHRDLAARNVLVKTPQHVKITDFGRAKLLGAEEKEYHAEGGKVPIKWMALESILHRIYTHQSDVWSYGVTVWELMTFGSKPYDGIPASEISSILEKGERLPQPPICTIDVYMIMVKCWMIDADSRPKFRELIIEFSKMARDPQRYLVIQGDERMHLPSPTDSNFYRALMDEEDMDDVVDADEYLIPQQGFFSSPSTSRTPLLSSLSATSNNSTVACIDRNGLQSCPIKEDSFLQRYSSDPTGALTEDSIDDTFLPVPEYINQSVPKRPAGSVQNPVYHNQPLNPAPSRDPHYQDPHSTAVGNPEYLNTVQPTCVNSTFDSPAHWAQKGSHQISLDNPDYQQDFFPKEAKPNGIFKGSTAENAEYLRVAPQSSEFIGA
pIC50: −log10 of the molar value.
READOUT: pIC50

Examples with answers:
# MOLECULE, pIC50
rows = [
    ("CC(C)(O)[C@H]1CC[C@@H](Nc2cc(Nc3ccnc(-c4cnn(S(=O)(=O)C5CC5)c4)n3)ncc2-c2ccc(OCCN3CCC3)cn2)CC1 [Example 217]", 9.52),
    ("CN1CCN(C(=O)c2ccc(-c3cnc(Nc4ccnc(-c5cnn(S(=O)(=O)C6CC6)c5)n4)cc3N[C@H]3CC[C@@H](CO)CC3)nc2)CC1 [Example 202]", 10.00),
    ("O=S(=O)(C1CC1)n1cc(-c2nccc(Nc3cc(N[C@H]4CC[C@@H](CO)CC4)c(-c4cccc(CC(F)(F)F)n4)cn3)n2)cn1 [Example 246]", 9.40),
    ("C[C@]1(O)CC[C@@H](Nc2cc(Nc3ccnc(-c4cnn(S(=O)(=O)C5CC5)c4)n3)ncc2-c2cc(NCCN3CCOCC3)ccn2)CC1 [Example 279]", 9.22),
    ("CC(C)(F)c1ccc(-c2cnc(Nc3ccnc(-c4cnn(S(=O)(=O)C5CC5)c4)n3)cc2NC2CCC(F)CC2)nc1 (centres unmarked) [Example 239]", 8.41),
]

A: CS(=O)(=O)c1ccc(-c2cnc(Nc3ccnc(-c4cnn(S(=O)(=O)C5CC5)c4)n3)cc2N[C@H]2CC[C@@H](NCCF)CC2)nc1 [Example 157]
B: CN(C)CCOc1ccc(-c2cnc(Nc3ccnc(-c4cnn(S(=O)(=O)C5CC5)c4)n3)cc2N[C@H]2CC[C@@H](C(C)(C)O)CC2)nc1 [Example 210]
C: CN1CCC(Oc2ccc(-c3cnc(Nc4ccnc(-c5cnn(S(=O)(=O)C6CC6)c5)n4)cc3NC3CCC(F)(CO)CC3)nc2)CC1 (centres unmarked) [Example 259]
D: CN1CCC(Oc2ccc(-c3cnc(Nc4ccnc(-c5cnn(S(=O)(=O)C6CC6)c5)n4)cc3NC3CCC(F)CC3)nc2)CC1 (centres unmarked) [Example 254]
Ascending sort, pIC50. # output: labels, in the requested order
C, B, A, D

A: CN(C)C[C@H]1CC[C@@H](Nc2cc(Nc3ccnc(-c4cnn(S(=O)(=O)C5CC5)c4)n3)ncc2-c2ccc(CC(F)(F)F)cn2)CC1 [Example 221]
B: C[C@]1(O)CC[C@@H](Nc2cc(Nc3ccnc(-c4cnn(S(=O)(=O)C5CC5)c4)n3)ncc2-c2ccc(OCCN3CCC3)cn2)CC1 [Example 290]
For A and B , which recorded pIC50 is lower? The response must carry the label of the picked entry.
A

====

target: EGFR wildtype (Homo sapiens); assay: Biochemical EGFR kinase assay (Lance Ultra TR-FRET), wildtype; conditions: ATP at Km; read-out: IC50 WT, Km ATP
Sequence (P00533 25-1210): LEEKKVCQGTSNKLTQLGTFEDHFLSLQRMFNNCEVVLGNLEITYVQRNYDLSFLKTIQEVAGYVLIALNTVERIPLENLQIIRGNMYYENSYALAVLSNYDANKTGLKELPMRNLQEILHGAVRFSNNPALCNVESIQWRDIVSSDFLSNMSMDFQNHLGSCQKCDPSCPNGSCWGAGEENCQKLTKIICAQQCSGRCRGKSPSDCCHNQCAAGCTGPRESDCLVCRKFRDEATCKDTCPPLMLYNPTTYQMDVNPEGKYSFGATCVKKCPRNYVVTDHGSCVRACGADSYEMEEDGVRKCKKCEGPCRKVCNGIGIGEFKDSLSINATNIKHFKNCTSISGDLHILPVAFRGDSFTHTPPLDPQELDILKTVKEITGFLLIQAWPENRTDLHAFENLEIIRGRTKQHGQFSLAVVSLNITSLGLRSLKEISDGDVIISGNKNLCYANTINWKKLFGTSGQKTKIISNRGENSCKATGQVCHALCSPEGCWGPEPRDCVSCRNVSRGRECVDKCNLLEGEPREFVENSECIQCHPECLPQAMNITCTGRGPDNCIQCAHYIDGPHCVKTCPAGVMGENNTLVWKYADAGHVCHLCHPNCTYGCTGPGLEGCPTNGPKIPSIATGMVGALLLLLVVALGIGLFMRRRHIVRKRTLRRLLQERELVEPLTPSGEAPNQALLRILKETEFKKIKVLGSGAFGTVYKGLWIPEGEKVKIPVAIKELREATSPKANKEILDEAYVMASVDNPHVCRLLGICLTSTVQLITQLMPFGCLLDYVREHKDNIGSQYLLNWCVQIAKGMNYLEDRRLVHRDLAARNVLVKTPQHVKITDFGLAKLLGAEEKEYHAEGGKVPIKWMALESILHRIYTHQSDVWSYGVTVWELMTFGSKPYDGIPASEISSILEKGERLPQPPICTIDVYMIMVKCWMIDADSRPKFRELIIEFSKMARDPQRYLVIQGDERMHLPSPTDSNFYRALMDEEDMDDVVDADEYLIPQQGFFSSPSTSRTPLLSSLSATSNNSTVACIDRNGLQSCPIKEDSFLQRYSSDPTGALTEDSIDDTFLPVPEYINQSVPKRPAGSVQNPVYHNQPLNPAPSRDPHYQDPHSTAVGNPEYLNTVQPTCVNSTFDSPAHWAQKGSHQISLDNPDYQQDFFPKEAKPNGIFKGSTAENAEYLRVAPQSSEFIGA
READOUT: IC50 (nM)

# CPD SMILES, UNIT OF MEASUREMENT, EXPERIMENTAL VALUE
data = [
    ("C[C@]1(O)CC[C@@H](Nc2cc(Nc3ccnc(-c4cnn(S(=O)(=O)C5CC5)c4)n3)ncc2-c2ccc(N3CC(F)(F)C3)cn2)CC1", "nM", 5.2),
]

A: CC(C)(F)c1ccc(-c2cnc(Nc3ccnc(-c4cnn(S(=O)(=O)C5CC5)c4)n3)cc2N[C@H]2CC[C@@H](CO)CC2)nc1
B: C[C@]1(O)CC[C@@H](Nc2cc(Nc3ccnc(-c4cnn(S(=O)(=O)C5CC5)c4)n3)ncc2-c2ccc(CC(F)(F)F)cn2)CC1
C: O=S(=O)(C1CC1)n1cc(-c2nccc(Nc3cc(NC4CCC(F)(F)CC4)c(-c4ccc(N5CCC(F)(F)CC5)nn4)cn3)n2)cn1
D: CN(C)CCOc1ccnc(-c2cnc(Nc3ccnc(-c4cnn(S(=O)(=O)C5CC5)c4)n3)cc2N[C@H]2CC[C@@](C)(O)CC2)c1
E: CN(C)CCOc1ccc(-c2cnc(Nc3ccnc(-c4cnn(S(=O)(=O)C5CC5)c4)n3)cc2N[C@H]2CC[C@@](C)(O)CC2)nc1
Order each entry by recorded IC50, climbing from the minimum. Answer by writing out the labels in the requested order.
E, D, A, B, C
(E: 0.3 nM, D: 3 nM, A: 4.9 nM, B: 10.3 nM, C: 4770 nM)
